assay details: Plasma concentration in ovalbumin-sensitized/challenged Balb/C mouse model of allergic airway inflammation at 100 mg/kg, sc after 14 days
Assay type: ADME, organism-based
Design: dose 100 mg/kg, route subcutaneous
quantity name: concentration at 336 h (µM)
Only the number, expressed in µM, is required.

concentration at 336 h measured on COc1cc(OC)c(-c2cc3ccccc3[nH]2)cc1/C=C/C(=O)c1ccc(C(=O)O)cc1 = 14

* * *

Catalogue of IC50 values
assay details: Inhibition of TNF-alpha-induced VCAM1 expression in HPAECs
Assay type: functional, Homo sapiens
Answer in µM, number only, no unit symbol.

# count of solved cases: 3
# substance smiles, unit tag, IC50
measured = [
    ("COc1cc(OCCN2CCOCC2)c(/C=C/C(=O)c2ccc(C(=O)O)cc2)cc1-c1cccs1", "µM", 0.8),
    ("CCOC(=O)c1ccc(C(=O)/C=C/c2cc(-c3cc4ccccc4s3)c(OC)cc2OC)cc1", "µM", 3.1),
    ("COc1cc(OC)c(-c2csc(C)n2)cc1/C=C/C(=O)c1ccc(C(=O)O)cc1", "µM", 2.5),
]

compound COc1cc(OC)c(-c2ccsc2)cc1/C=C/C(=O)c1ccc(C(=O)O)cc1 , IC50 observed: 2.1
